Target: T1, soluble KIR3DL1*020-Fc (human, UniProt P43629 22-339)
T1 construct: also called KIR3DL1 allele 020; CD158e allele 020; not shown: Fc domain
T1 sequence (P43629 other isoform, or with tags, fused parts or gaps): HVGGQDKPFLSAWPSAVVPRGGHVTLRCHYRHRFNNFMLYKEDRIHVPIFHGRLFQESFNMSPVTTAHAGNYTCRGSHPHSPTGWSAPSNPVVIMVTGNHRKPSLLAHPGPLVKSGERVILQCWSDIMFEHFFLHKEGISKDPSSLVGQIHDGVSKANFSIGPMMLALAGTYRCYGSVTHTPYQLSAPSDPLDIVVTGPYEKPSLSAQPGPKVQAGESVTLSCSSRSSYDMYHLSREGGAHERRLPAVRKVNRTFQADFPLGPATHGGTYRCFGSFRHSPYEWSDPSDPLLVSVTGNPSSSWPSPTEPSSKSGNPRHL
Assay: BLI (ForteBio QK), hIgG1
quantity_kind: pKd
The read-out pKd is expressed as -log10 of concentration in moles per litre.

Value of measured pKd for the entry ET160-72 (antibody, human IgG1, V domains shown, Tested as human IgG1 (hIgG1), lambda light chain) VH: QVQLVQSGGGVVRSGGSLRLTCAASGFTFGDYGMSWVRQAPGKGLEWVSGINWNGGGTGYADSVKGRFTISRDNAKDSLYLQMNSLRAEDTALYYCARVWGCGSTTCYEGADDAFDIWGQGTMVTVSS VL: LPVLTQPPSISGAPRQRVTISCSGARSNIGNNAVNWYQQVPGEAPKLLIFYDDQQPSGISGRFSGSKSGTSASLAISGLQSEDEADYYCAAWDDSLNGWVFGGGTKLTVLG : 7.94

Value of measured pKd for the entry ET160-77 (antibody, human IgG1, V domains shown, Tested as human IgG1 (hIgG1), lambda light chain) VH: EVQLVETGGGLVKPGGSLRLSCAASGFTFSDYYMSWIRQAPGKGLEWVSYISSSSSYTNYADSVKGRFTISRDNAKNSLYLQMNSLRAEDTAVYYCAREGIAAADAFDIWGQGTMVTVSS VL: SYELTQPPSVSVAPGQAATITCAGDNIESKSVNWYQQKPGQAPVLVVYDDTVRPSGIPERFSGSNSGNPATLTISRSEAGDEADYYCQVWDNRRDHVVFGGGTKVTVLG : 7.98

Value of measured pKd for the entry ET160-74 (antibody, human IgG1, V domains shown, Tested as human IgG1 (hIgG1), lambda light chain) VH: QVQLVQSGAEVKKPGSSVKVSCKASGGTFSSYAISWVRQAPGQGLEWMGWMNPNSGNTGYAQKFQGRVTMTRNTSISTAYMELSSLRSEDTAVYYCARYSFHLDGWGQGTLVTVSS VL: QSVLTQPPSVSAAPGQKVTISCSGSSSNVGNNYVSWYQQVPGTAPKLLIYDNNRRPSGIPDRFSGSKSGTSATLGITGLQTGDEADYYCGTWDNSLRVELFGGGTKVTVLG : 7.95

src = patent US20200031927A1
